# System: human PAH with the R408W mutation (Homo sapiens, UniProt P00439, R408W)
# Construct: expressed in transfected cells
# Protocol Text: Cell Based Phenylalanine Flux Assay
# Condition Details: A375 cells expressing human R408W PAH; 24 hrs compound incubation; 13C-Tyrosine by LC-MS; average where tested multiple times; read-out: AC50
Observable: AC50

Answered examples (5):
CN1CCN(c2nc(C(F)F)c(C(=O)N3CCc4[nH]cnc4[C@H]3c3nc4c(F)cccc4s3)o2)CC1 [Example 2023] :: < 0.5 µM
Cc1nc(CCCN2CCOCC2)oc1C(=O)N1CCc2[nH]cnc2[C@H]1c1nc2ccccc2s1 [Example 1701] :: < 0.5 µM
O=C(c1cnn2cc(C3CC3)ccc12)N1CCc2[nH]cnc2[C@@H]1c1nc2ccccc2s1 [Example 1192] :: 1 to 5 µM
O=C(CC1CC1)N1CCc2[nH]cnc2[C@H]1c1nc2ccc(Br)cc2s1 [Example 1148] :: < 0.5 µM
Cc1nn(C)c(C)c1-c1ncc(C(=O)N2CCc3[nH]cnc3[C@@H]2c2nc3ccccc3s2)s1 [Example 1406] :: 0.5 to 1 µM

Enter reported AC50 observed with human PAH with the R408W mutation (Homo sapiens, UniProt P00439, R408W) for COCc1ncc(C(=O)N2CCc3[nH]cnc3[C@H]2c2nc3c(F)cccc3s2)s1 [Example 1703]
0.5 to 1 µM

Enter reported AC50 observed with human PAH with the R408W mutation (Homo sapiens, UniProt P00439, R408W) for O=C(c1oc(CN2CCOCC2)nc1C(F)(F)F)N1CCc2[nH]cnc2[C@H]1c1nc2ccccc2s1 [Example 1627]
< 0.5 µM

Enter reported AC50 observed with human PAH with the R408W mutation (Homo sapiens, UniProt P00439, R408W) for Cn1nc(Br)nc1C(=O)N1CCc2[nH]cnc2[C@H]1c1nc2ccccc2s1 [Example 1977]
1 to 5 µM

Enter reported AC50 observed with human PAH with the R408W mutation (Homo sapiens, UniProt P00439, R408W) for O=C(C1CC1)N1CCc2[nH]cnc2[C@@H]1c1nc2ccccc2s1 [Example 1074]
> 5 µM

Enter reported AC50 observed with human PAH with the R408W mutation (Homo sapiens, UniProt P00439, R408W) for O=C(CCc1nnc(Br)s1)N1CCc2[nH]cnc2[C@H]1c1nc2ccccc2s1 [Example 1089]
0.5 to 1 µM

Enter reported AC50 observed with human PAH with the R408W mutation (Homo sapiens, UniProt P00439, R408W) for O=C(c1nnc(-c2cnn(CC(F)(F)F)c2)o1)N1CCc2[nH]cnc2[C@@H]1c1nc2c(F)cccc2s1 [Example 1843]
1 to 5 µM

Enter reported AC50 observed with human PAH with the R408W mutation (Homo sapiens, UniProt P00439, R408W) for CC1(C(=O)N2CCc3[nH]cnc3[C@@H]2c2nc3ccccc3s2)CC1(F)F (single isomer, unassigned) [Example 1289]
1 to 5 µM

Enter reported AC50 observed with human PAH with the R408W mutation (Homo sapiens, UniProt P00439, R408W) for Cc1nnc(C(=O)N2CCc3[nH]cnc3[C@@H]2c2nc3cccc(F)c3s2)s1 [Example 1332]
1 to 5 µM

* * *

# System: human PAH with the R408W mutation (Homo sapiens, UniProt P00439, R408W)
# Construct: expressed in transfected cells
# Sequence (P00439 1-452 R408W): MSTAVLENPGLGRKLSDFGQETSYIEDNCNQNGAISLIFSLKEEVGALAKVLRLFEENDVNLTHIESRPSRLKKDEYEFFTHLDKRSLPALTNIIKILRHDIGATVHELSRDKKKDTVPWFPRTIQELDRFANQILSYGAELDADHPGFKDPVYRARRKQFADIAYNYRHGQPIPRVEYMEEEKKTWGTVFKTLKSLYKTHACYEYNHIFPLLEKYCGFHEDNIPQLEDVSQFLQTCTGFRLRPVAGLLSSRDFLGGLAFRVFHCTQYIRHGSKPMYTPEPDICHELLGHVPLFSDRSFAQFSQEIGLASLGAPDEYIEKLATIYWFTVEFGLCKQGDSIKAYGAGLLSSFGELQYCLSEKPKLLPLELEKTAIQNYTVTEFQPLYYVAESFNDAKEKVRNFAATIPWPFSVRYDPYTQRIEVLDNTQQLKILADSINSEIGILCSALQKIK
# Protocol Text: Cell Based Phenylalanine Flux Assay
# Condition Details: A375 cells expressing human R408W PAH; 24 hrs compound incubation; 13C-Tyrosine by LC-MS; average where tested multiple times; read-out: AC50
Observable: AC50

Answered examples (3):
O=C(CCc1nccs1)N1CCc2[nH]cnc2[C@@H]1c1nc2ccccc2[nH]1 :: > 5 µM
O=C(c1nnc(-c2cnn(CC(F)(F)F)c2)o1)N1CCc2[nH]cnc2[C@@H]1c1nc2ccccc2s1 :: 1 to 5 µM
Cn1cc(C(=O)N2CCc3[nH]cnc3[C@H]2c2nc3c(F)cccc3s2)c(C(F)(F)F)n1 :: < 0.5 µM

Value lookup for AC50; key = CC(O)c1nc(Cl)c(C(=O)N2CCc3[nH]cnc3[C@H]2c2nc3c(F)cccc3s2)o1 (single isomer, unassigned) [Example 2080]
0.5 to 1 µM

Value lookup for AC50; key = "Cc1nc(C(C)(C)O)oc1C(=O)N1CCc2[nH]cnc2[C@@H]1c1nc2c(F)cccc2s1"
1 to 5 µM

Value lookup for AC50; key = "O=C(c1ccns1)N1CCc2[nH]cnc2[C@@H]1c1nc2ccccc2s1"
> 5 µM

Value lookup for AC50; key = "Cc1nc(CC2CC2)oc1C(=O)N1CCc2[nH]cnc2[C@H]1c1nc2ccccc2s1"
< 0.5 µM

Value lookup for AC50; key = "O=C(c1nc2ccccc2o1)N1CCc2[nH]cnc2[C@H]1c1nc2ccccc2[nH]1"
1 to 5 µM

Value lookup for AC50; key = "O=C(c1nnc(-c2ccc(F)cc2)o1)N1CCc2[nH]cnc2[C@H]1c1nc2ccccc2s1"
< 0.5 µM

Value lookup for AC50; key = "Cc1ncoc1C(=O)N1CCc2[nH]cnc2[C@@H]1c1nc2ccccc2s1"
1 to 5 µM

Value lookup for AC50; key = "c1ccc2sc([C@@H]3c4nc[nH]c4CCN3CCC3CC3)nc2c1"
< 0.5 µM

Value lookup for AC50; key = "O=C(c1cnc(-c2cc(C(F)(F)F)ccn2)s1)N1CCc2[nH]cnc2[C@@H]1c1nc2ccccc2s1"
1 to 5 µM

Value lookup for AC50; key = "O=C(CCc1nccs1)N1CCc2[nH]cnc2[C@@H]1c1nc2cccc(F)c2s1"
1 to 5 µM

Value lookup for AC50; key = "O=C(c1ncn2ccccc12)N1CCc2[nH]cnc2[C@@H]1c1nc2c(F)cccc2s1"
> 5 µM

Value lookup for AC50; key = "O=C(CCc1nccs1)N1CCc2[nH]cnc2[C@H]1c1nc(-c2ccccc2)cs1"
1 to 5 µM

Value lookup for AC50; key = "COC(C)(C)c1nc(C)c(C(=O)N2CCc3[nH]cnc3[C@@H]2c2nc3c(F)cccc3s2)o1"
> 5 µM
